System: Pseudomonas aeruginosa
Experiment: Antimicrobial activity against Pseudomonas aeruginosa after 24 hrs by twofold serial dilution method
Assay type: functional
property.measured: MIC (µg/mL)

>  <molecule>
COc1ccc(C2CC(=O)C(C)C(c3ccc(OC)cc3)N2C(=O)CN2CCN(C)CC2)cc1 (centres undefined)

>  <censor.symbol>
=

>  <value.observed>
50

$$$$
>  <molecule>
COc1ccc(C2C(C)C(=O)C(C)C(c3ccc(OC)cc3)N2C(=O)CN2CCN(C)CC2)cc1 (centres undefined)

>  <censor.symbol>
=

>  <value.observed>
50

$$$$
>  <molecule>
CC1C(=O)C(C)C(c2ccccc2)N(C(=O)CN2CCN(C)CC2)C1c1ccccc1 (centres undefined)

>  <censor.symbol>
=

>  <value.observed>
50

$$$$
>  <molecule>
CC1C(=O)CC(c2ccccc2)N(C(=O)CN2CCN(C)CC2)C1c1ccccc1 (centres undefined)

>  <censor.symbol>
>

>  <value.observed>
200

$$$$
>  <molecule>
Cc1ccc(C2C(C)C(=O)C(C)C(c3ccc(C)cc3)N2C(=O)CN2CCN(C)CC2)cc1 (centres undefined)

>  <censor.symbol>
=

>  <value.observed>
25

$$$$
>  <molecule>
CC(C)C1C(=O)CC(c2ccccc2)N(C(=O)CN2CCN(C)CC2)C1c1ccccc1 (centres undefined)

>  <censor.symbol>
=

>  <value.observed>
100

$$$$
>  <molecule>
CC1C(=O)CC(c2ccc(Cl)cc2)N(C(=O)CN2CCN(C)CC2)C1c1ccc(Cl)cc1 (centres undefined)

>  <censor.symbol>
=

>  <value.observed>
6.25

$$$$
>  <molecule>
CCC1C(=O)CC(c2ccccc2)N(C(=O)CN2CCN(C)CC2)C1c1ccccc1 (centres undefined)

>  <censor.symbol>
=

>  <value.observed>
200

$$$$
>  <molecule>
CC1C(=O)C(C)C(c2ccc(Cl)cc2)N(C(=O)CN2CCN(C)CC2)C1c1ccc(Cl)cc1 (centres undefined)

>  <censor.symbol>
=

>  <value.observed>
12.5

$$$$
